Data origin: patent US20240109912A1

IC50 values recorded for RNA polymerase II Serine 5 phosphorylation (CDK7) in A549 cells

Example results:
{"compound": "C=CC(=O)N1CC(N2CCCC(c3ccc4c(c3)Nc3ncnc(N5CCOCC5)c3CO4)C2)C1 (stereo not drawn)", "IC50": "~7.94 µM"}
{"compound": "C=CC(=O)N1CC(N2CCC(c3ccc4c(c3)Nc3ncnc(N5CCOCC5)c3[C@@H](C)O4)CC2)C1 (single isomer, unassigned)", "IC50": "3.24 µM"}

input: API: value(readout= IC50, system= RNA polymerase II Serine 5 phosphorylation (CDK7) in A549 cells, query= C=CC(=O)N1CCC(N2CC(c3cc4c(c(C5CC5)c3)O[C@@H](C)c3c(ncnc3N3CCS(=O)(=O)CC3)N4)C2)C1 (mixture of isomers) )
output: 0.234 µM

----------
# key: entry, value: kinact/KI
biological target: CDK7/cyclinH/MAT1 trimeric complex (Homo sapiens (Human), UniProt P50613); experiment: In vitro CDK7 assay, potency of irreversible covalent inhibitors (kinact/KI); details: read-out: CDK7 (20 nM enz.) (kinact/ KI, M^−1*s^−1), 20 nM enz.
Sequence (P50613 whole entry): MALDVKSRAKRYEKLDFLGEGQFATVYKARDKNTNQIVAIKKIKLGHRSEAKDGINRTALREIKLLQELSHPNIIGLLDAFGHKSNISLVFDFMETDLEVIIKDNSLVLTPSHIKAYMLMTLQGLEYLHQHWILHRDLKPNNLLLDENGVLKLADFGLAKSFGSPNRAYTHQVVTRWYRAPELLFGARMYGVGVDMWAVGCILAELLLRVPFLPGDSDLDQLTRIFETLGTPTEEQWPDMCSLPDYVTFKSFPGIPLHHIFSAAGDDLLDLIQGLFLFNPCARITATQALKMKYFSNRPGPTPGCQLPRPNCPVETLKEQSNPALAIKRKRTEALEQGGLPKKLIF
Sequence (P51946 whole entry partner): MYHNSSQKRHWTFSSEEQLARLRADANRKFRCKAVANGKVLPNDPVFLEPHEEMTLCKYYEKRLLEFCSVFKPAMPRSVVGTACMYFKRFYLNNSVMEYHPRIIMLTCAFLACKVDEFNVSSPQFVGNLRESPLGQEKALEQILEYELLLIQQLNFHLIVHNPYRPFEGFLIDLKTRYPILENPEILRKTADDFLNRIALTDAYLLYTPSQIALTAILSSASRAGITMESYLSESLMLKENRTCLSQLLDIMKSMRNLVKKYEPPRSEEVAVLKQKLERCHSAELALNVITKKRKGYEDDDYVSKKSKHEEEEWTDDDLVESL
Sequence (P51948 whole entry partner): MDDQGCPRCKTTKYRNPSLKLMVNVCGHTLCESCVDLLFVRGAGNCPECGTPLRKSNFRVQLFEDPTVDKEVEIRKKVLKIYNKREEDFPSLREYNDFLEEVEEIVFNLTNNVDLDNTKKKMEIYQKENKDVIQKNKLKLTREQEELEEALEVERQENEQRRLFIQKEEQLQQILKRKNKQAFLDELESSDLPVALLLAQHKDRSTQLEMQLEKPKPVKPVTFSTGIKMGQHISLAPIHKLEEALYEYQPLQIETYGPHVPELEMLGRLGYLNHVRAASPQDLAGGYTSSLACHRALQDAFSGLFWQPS
Just the number in M⁻¹ s⁻¹, nothing appended.

Example results:
{"compound": "CC#CC(=O)N1CC(N2CCN(c3cc(C)c4c(c3)Nc3ncnc(N5CCS(=O)(=O)CC5)c3[C@@H](C)O4)CC2)C1", "readout.unit": "M⁻¹ s⁻¹", "quantitative.readout": 12200}
{"compound": "CC#CC(=O)N1CC(C)(N2CCC(c3cc(C)c4c(c3)Nc3ncnc(N5CCS(=O)(=O)CC5)c3[C@@H](C)O4)CC2)C1", "readout.unit": "M⁻¹ s⁻¹", "quantitative.readout": 12200}
{"compound": "C=CC(=O)N1CC(N2CCC(c3cc4c(cc3C#N)OCc3c(ncnc3N3CCOCC3)N4)CC2)C1", "readout.unit": "M⁻¹ s⁻¹", "quantitative.readout": 61.4}
{"compound": "CC#CC(=O)N1CCC(N2CCN(c3cc(C)c4c(c3)Nc3ncnc(N5CCS(=O)(=O)CC5)c3CO4)CC2)CC1", "readout.unit": "M⁻¹ s⁻¹", "quantitative.readout": 613}

input: Which kinact/KI is reported for this compound? `C=CC(=O)N1CC(N2CC(c3cc4c(c(C)n3)OCc3c(ncnc3N3CCS(=O)(=O)CC3)N4)C2)C1`
output: 113

input: Which kinact/KI is reported for this compound? `C=CC(=O)N1CCC(N2CCC(c3cc(C)c4c(c3)Nc3ncnc(N5CCS(=O)(=O)CC5)c3CO4)CC2)CC1`
output: 923

input: Which kinact/KI is reported for this compound? C=CC(=O)N1CC(N2CC(c3cc(C)c4c(c3)Nc3ncnc(-c5cnn(C)c5)c3[C@@H](C)O4)C2)C1 (single isomer, unassigned)
output: 345

input: Which kinact/KI is reported for this compound? C=CC(=O)N1CCC(N2CCC(c3cc(C)c4c(c3)Nc3ncnc(N5CCOCC5)c3CO4)CC2)C1 (stereo not drawn)
output: 874

input: Which kinact/KI is reported for this compound? C=CC(=O)N1CC[C@H](N2CCC(c3cc(C)c4c(c3)Nc3ncnc(N5CCS(=O)(=O)CC5)c3CO4)CC2)C1 (single isomer, unassigned)
output: 1280

----------
pIC50 values recorded for RNA polymerase II Serine 5 phosphorylation (CDK7) in A549 cells
Scale: pIC50 equals -log10([C]), with [C] in mol/L.

{"molecule": "C=CC(=O)N1CC[C@@H](N2CCC(c3cc(F)c4c(c3)Nc3ncnc(N5CCOCC5)c3CO4)CC2)C1 (single isomer, unassigned)", "study.target": "RNA polymerase II Serine 5 phosphorylation (CDK7) in A549 cells", "readout.kind": "pIC50", "quantitative.readout": 6.49}

input: Which pIC50 is reported for this molecule? CC#CC(=O)N1CC(N2CCC(c3cc(C)c4c(c3)Nc3ncnc(N5CCS(=O)(=O)CC5)c3[C@@H](C)O4)CC2)C1 [compound 158]
output: 7.13

input: Which pIC50 is reported for this molecule? `C#Cc1cc(C2CN([C@H]3CCN(C(=O)C=C)C3)C2)cc2c1O[C@H](C)c1c(ncnc1N1CCS(=O)(=O)CC1)N2`
output: 6.29
